- assay-system: UniProt:P42263
- Sequence (P42263 whole entry): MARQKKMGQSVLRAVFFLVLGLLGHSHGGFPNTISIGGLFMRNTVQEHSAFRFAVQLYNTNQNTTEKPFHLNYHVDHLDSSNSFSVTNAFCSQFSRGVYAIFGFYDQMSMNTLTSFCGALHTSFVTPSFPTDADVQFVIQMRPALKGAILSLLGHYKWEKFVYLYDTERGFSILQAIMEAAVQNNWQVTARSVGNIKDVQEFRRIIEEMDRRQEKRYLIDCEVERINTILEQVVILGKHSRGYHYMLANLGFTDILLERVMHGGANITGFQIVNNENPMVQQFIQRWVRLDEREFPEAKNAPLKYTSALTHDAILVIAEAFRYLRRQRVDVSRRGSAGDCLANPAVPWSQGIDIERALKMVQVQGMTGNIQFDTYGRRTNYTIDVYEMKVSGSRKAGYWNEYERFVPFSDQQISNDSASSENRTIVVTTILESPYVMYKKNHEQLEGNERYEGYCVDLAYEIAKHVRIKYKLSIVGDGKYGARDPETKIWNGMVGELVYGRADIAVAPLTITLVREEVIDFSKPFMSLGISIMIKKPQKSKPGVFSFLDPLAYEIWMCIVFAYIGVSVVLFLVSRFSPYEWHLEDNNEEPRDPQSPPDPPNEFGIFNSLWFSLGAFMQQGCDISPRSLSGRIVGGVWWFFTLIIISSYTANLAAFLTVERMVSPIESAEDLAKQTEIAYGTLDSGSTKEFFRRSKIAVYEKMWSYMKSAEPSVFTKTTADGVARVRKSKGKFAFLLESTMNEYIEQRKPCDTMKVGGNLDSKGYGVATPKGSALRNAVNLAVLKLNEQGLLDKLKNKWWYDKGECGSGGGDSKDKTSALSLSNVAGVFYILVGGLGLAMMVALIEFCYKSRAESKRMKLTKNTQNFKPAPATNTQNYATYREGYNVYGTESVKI
- experimental-details: Blockade of whole cell current in GluA3i-G (unknown origin) transfected in HEK293 cells measured at -60 mV in presence of glutamate by whole cell patch clamp assay
assay-metric: IC50 (µM)

# chemical-smiles, test-value
rows = [
    ("N#Cc1ccccc1-c1cc(-c2ccccn2)cn(-c2ccccc2)c1=O", 2.1),
]
